The reader will find reported ADCC, Percent Non-Viable cells (EC50 pM), Donor 5 values listed item by item below.
# Tgt: human CCR8 (human, UniProt P51685 1-355)
# Sequence (P51685 whole entry): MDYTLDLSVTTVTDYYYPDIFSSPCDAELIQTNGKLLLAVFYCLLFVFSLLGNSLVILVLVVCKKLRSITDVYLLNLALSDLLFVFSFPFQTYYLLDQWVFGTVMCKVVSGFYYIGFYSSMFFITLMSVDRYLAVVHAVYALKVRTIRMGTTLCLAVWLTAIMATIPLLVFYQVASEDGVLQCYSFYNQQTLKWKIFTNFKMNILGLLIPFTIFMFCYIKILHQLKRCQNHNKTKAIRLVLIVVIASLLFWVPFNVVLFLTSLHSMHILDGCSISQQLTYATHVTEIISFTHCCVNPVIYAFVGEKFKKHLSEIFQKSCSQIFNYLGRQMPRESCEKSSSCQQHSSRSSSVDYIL
# Test name: cell-based or functional assay
Form entry: enter the amount, then its unit.

Query: ADCC, Percent Non-Viable cells (EC50 pM), Donor 5; subject: Antibody 5.5 IgG1 (VH: G40P_M41V, VL: S57Y_E58L_V67T_F103V)_huIgG1z mAb (antibody, V domains shown) VH: QVQLVESGGGVVQPGRSLRLSCAASGFTFSSYPVHWVRQAPGKGLEWVAVISYDGSNKYYADSVKGRFTISRDNSKNTLYLQMNSLRAEDTAVYYCARGRYFDWFLFDYWGQGTLVTVSS VL: DTVMTQTPLSLSVTPGQPASISCKSSQSLLHSDGKTYLFWYLQKPGQPPQLLIYLTSNRFSGVPDRFSGSGSGTDFTLKISRVEAEDVGVYYCMQSLRLPLTFGGGTKVEIKR
0.837 pM

Can you look up the measured ADCC, Percent Non-Viable cells (EC50 pM), Donor 5 of Antibody 6.2 IgG1 (VH: S67R_Q68A_L135K_F136L, VL: S109T_I110L)_huIgG1z mAb (antibody, V domains shown) VH: QVQLVESGGGVVQPGRSLRLSCEASGFTFSSYVMHWVRQAPGKGLEWVSVISYDGSRAYYTDSVKGRFTISRDNSKNTLNLQMNSLRAEDTAVYYCVRGRLATAIKLDYWGQGTLVTVSS VL: DILMTQTPLSLSVTPGQPASISCKSSQSLLYSDGKTYLFWYLQRPGQPPQLLIYEVSNRFSGVPDRFSGSGSGTDFTLKISRVEAEDVGIYYCMQTLKLPLTFGGGTKVEIKR for me?
2.04 pM
